Give activation factor for every item shown.
tested on: intestinal alkaline phosphatase [Mus musculus]; test: mouse intestinal phosphatase enzyme activation – biochemical, luminescence, single concentration, confirmation (AID 434970); conditions: purified mouse IAP, CDP-Star luminescence, 30 min, at 10 µM; measured here: IAP activation factor, stronger effect = higher value
The whole screen tested about 11,000 compounds, of which about 310 (2.8%) were called active. Shown is part of a subset that was picked to be rich in actives.
// no unit string in output, number only

Enquiry: Report activation factor for `Cc1cccc(OCCCSc2nc3ccccc3[nH]2)c1`
Return: 1.13

Enquiry: Let me know recorded activation factor for `COc1ccccc1C(=O)Nc1ccc(CN2CCCCC2)cc1` , thanks.
Return: 0.94

Enquiry: Determine its reported activation factor: `CCS(=O)(=O)n1nc(-c2ccccc2)nc1N`
Return: 0.926

Enquiry: Return activation factor for the following compound: `Cc1ccc(NC(=O)NC2(C(=O)NCc3ccccc3)CCCCC2)cc1`
Return: 2.31

Enquiry: Give reported activation factor value for `COc1ccc(CNC(=O)C[C@H]2C[C@H](C(=O)N3CCOCC3)[C@@]3(CCC4CCCC4)c4[nH]c5cc(CCC(=O)N(C)C)ccc5c4CCN3C2=O)cc1OC`
Return: 1.07

Enquiry: // fetch activation factor given entry CCc1ccc(NC(=O)NC(C)c2ccc3c(c2)OCO3)cc1 (stereo unspecified)
Return: 2.66

Enquiry: Indicate the recorded activation factor value for this compound: `CCOC(=O)c1ccc(NC(=O)Nc2ccc3c(c2)OCCO3)cc1`
Return: 2.06

Enquiry: Find the measured activation factor of `COc1cccc(NC(=O)C2CCN(Cc3cnn(-c4ccccc4)c3-n3cccc3)CC2)c1` and report it.
Return: 2.01

Enquiry: Return reported activation factor. Input compound: `O=C(Nc1cccc(C(F)(F)F)c1)NC1CCCCC1`
Return: 2.1

Enquiry: Give the reported activation factor for this compound. `COc1cccc(Cn2cnc3c(NS(=O)(=O)c4ccc(Cl)cc4Cl)c(C)c(C)cc32)c1`
Return: 0.985

Enquiry: Identify measured activation factor associated with `CC(C)c1ccc(NC(=S)NCc2ccc3c(c2)OCO3)cc1`
Return: 1.36

Enquiry: Dear colleague, please send me the reported activation factor for `O=C(c1ccc(C(=O)N2CCOCC2)nc1)N1CCOCC1` when you can.
Return: 1.09

Enquiry: Please supply the value of reported activation factor for the item `COc1ccccc1CNC(=O)Cn1cccc1`
Return: 0.944

Enquiry: Read off the recorded activation factor for Cc1ccc(S(=O)(=O)N(C)C)cc1NC(=S)NC(C)CCCC(C)C (stereo unspecified)
Return: 1.26

Enquiry: Answer with reported activation factor of Cc1ccc(C(=O)NC(Cc2cccc(C(F)(F)F)c2)C(=O)O)cc1 (stereo unspecified)
Return: 1.14

Enquiry: For the compound `CCN(CC)C(=O)[C@H]1C[C@H](CC(=O)NCCc2ccccn2)C(=O)N2CCc3c([nH]c4cc(-c5ccco5)ccc34)[C@]12C` , give its reported activation factor.
Return: 1.27

Enquiry: Output measured activation factor for this item: `COc1ccccc1CNC(=O)C1(NC(=O)Nc2ccc(C)cc2)CCCCC1`
Return: 3.44

Enquiry: Give activation factor for the following compound: `Cc1ccc(CNC(=O)C2(NC(=O)Nc3ccc(C)cc3)CCCCC2)cc1`
Return: 2.98

Enquiry: Give me measured activation factor, please, for this compound: COc1ccc(CC(NC(C)=O)C(=O)NC2CCN(C(=O)c3cnccn3)CC2)cc1 (stereo unspecified)
Return: 0.93

Enquiry: Name the recorded activation factor of the item CCOC(=O)C1=CN(Cc2ccco2)S(=O)(=O)N(CC)C1c1cccc(OC)c1 (stereo unspecified) in your answer.
Return: 1.02

Enquiry: Provide one value: measured activation factor of `Cc1cc(Cn2nc(-c3ccccc3)cc2C(=O)NCc2cccc(C(F)(F)F)c2)on1`
Return: 2.25

---

tested on: intestinal alkaline phosphatase [Mus musculus]; experiment: mouse intestinal phosphatase enzyme activation – biochemical, luminescence, single concentration, confirmation (AID 434970); conditions: purified mouse IAP, CDP-Star luminescence, 30 min, at 10 µM; stronger effect = lower value
Screen size: about 11,000 compounds; about 310 (2.8%) were called active. Shown is part of a subset that was picked to be rich in actives.
Would you mind telling me the reported activity change, negative = activation of each entry?

Enquiry: Please give measured activity change, negative = activation of the following entry: `Cc1ccc(NC(=O)N/C=C/c2ccc(Cl)cc2)cc1`
Return: -9.1% (inactive)

Enquiry: Hello, please tell me recorded activity change, negative = activation for this one: `Nc1ncnc2c1ncn2[C@@H]1O[C@H](CNS(=O)(=O)c2cc(S(=O)(=O)c3ccccc3)cs2)[C@@H](O)[C@H]1O`
Return: -7.65% (inactive)

Enquiry: Give activity change, negative = activation for the following molecule: CC(NC(=O)Nc1ccc(Cl)cc1)c1ccc2c(c1)OCO2 (stereo not given)
Return: -153% (active)

Enquiry: Please report activity change, negative = activation for the following molecule: `CCOC(=O)c1ccc(-n2c(C)nc3c(cnn3-c3ccc(Cl)cc3)c2=O)cc1`
Return: 3.55% (inactive)

Enquiry: Report activity change, negative = activation, nothing else, for this molecule: `COC(=O)Nc1ccc2c(c1)OCO2`
Return: 9.6% (inactive)

---

test system: intestinal alkaline phosphatase [Mus musculus]; assay: mouse intestinal phosphatase enzyme activation – biochemical, luminescence, single concentration, confirmation (AID 434970); settings: purified mouse IAP, CDP-Star luminescence, 30 min, at 10 µM; measured here: IAP activation factor, stronger effect = higher value
The whole screen tested about 11,000 compounds, of which about 310 (2.8%) were called active. The sample as a whole holds a higher share of actives than the screen did.
assay readout: activation factor
A bare number is all that is needed in reply.

Enquiry: Name the recorded activation factor of the molecule listed here: `Cc1cccc(C2=NN(c3ccccc3)[C@H](CO)[C@H]2c2ccccc2)c1`
Return: 2.07

Enquiry: // fetch activation factor given entry `C#CCOCCOCCOCCNc1nc(N2CCN(C(=O)CCCCCCCCCCNC(=O)Cn3cc(C[C@@H](C)O)nn3)CC2)nc(N2CCN(C(=O)CCCCCCCCCCNC(=O)[C@@H]([C@H](C)CC)n3cc(CCCCCN)nn3)CC2)n1`
Return: 5.59

Enquiry: Using known records, supply activation factor for `OC[C@@H]1[C@@H](c2ccc(Cl)cc2)C(c2ccccc2)=NN1c1ccccc1`
Return: 1.77

Enquiry: Tell us which activation factor value is on record for `COc1cc(NC(=O)NCC2CCN(Cc3ccccc3Cl)CC2)cc(OC)c1OC`
Return: 2.47

Enquiry: Retrieve activation factor measured for `CCC(NC(=O)Nc1cc(OC)c(OC)c(OC)c1)(C(F)(F)F)C(F)(F)F` and print it.
Return: 1.8

Enquiry: Hello, please tell me recorded activation factor for this one: `Cc1cccc(C2=NN(c3ccccc3)[C@H](CO)[C@H]2c2ccc(F)cc2)c1`
Return: 1.73

Enquiry: Give the measured activation factor for `OC[C@@H]1[C@@H](c2ccc(Cl)cc2)C(c2ccc(F)cc2)=NN1c1ccccc1`
Return: 1.79

Enquiry: Provide activation factor value for the following molecule: `OC[C@@H]1[C@@H](c2ccccc2)C(c2ccc(F)cc2)=NN1c1ccccc1`
Return: 1.65

Enquiry: Provide only the value of recorded activation factor for `C#CCOCCOCCOCCNc1nc(N2CCN(C(=O)[C@H](Cc3cc4ccccc4[nH]3)n3cc([C@@H](N)CC(C)C)nn3)CC2)nc(N2CCN(C(=O)[C@H](Cc3cc4ccccc4[nH]3)n3cc([C@@H](N)CC(C)C)nn3)CC2)n1`
Return: 1.61

Enquiry: For the molecule `COc1cc(NC(=O)NCC2CCN(Cc3ccccc3C)CC2)cc(OC)c1OC` , give its measured activation factor value.
Return: 2.9

Enquiry: Retrieve activation factor measured for `COc1cc(NC(=O)NCC2CCN(Cc3ccc(C)cc3)CC2)cc(OC)c1OC` and print it.
Return: 1.88

Enquiry: Name the recorded activation factor of the molecule listed here: `COc1ccc(Nc2nc(-c3cccs3)cs2)cc1`
Return: 0.881

Enquiry: Supply reported activation factor belonging to this molecule: `OC[C@@H]1[C@@H](c2ccc(F)cc2)C(c2ccccc2)=NN1c1ccccc1`
Return: 1.73

Enquiry: Specify measured activation factor for `O=C1OCCN1C(=O)[C@H]1[C@H](c2ccccc2)C(c2cccc(Cl)c2)=NN1c1ccccc1` .
Return: 1.01

Enquiry: Supply reported activation factor belonging to this molecule: `C#CCOCCOCCOCCNc1nc(N2CCN(C(=O)CCCCCCCCCCNC(=O)Cn3cc(CCCCCN)nn3)CC2)nc(N2CCN(C(=O)CCCCCCCCCCNC(=O)Cn3cc(C[C@@H](C)O)nn3)CC2)n1`
Return: 2.22

Enquiry: For the molecule O=C(Nc1cc(Cl)cc(Cl)c1)C1CCC(=O)N1Cc1ccccc1Cl (configuration not stated) , report activation factor.
Return: 1.71

Enquiry: Return activation factor for the following molecule: `OC[C@@H]1[C@@H](c2ccccc2)C(c2ccccc2)=NN1c1ccccc1`
Return: 2.15
